# method_notes: Volume of distribution at steady state in rat at 2 mg/kg, iv
# Type: ADME, organism-based
# condition_description: in vivo, read-out: Vdss
result_type: Vd (L/kg)
Please give a number only; it is taken to be in L/kg.

Reported Vd for `N#Cc1cccc(CNc2ccc3ncnc(Nc4ccc(F)c(Cl)c4)c3c2)c1` was 6.3

----------
# method_notes: Cytotoxicity against human HFL-1 cells
# Format: cell-based, HFL1
result_type: CC50

Reported CC50 for `N#Cc1cccc(CNc2ccc3ncnc(Nc4ccc(F)c(Cl)c4)c3c2)c1` was > 100 µM

----------
# method_notes: Half life in rat at 5 mg/kg, po
# Type: ADME, organism-based
# condition_description: in vivo
result_type: half-life

Reported half-life for `N#Cc1cccc(CNc2ccc3ncnc(Nc4ccc(F)c(Cl)c4)c3c2)c1` was 5.5 h

----------
# method_notes: Cytotoxicity against mouse L929 cells
# Assay type: cell-based
result_type: CC50

Reported CC50 for `N#Cc1cccc(CNc2ccc3ncnc(Nc4ccc(F)c(Cl)c4)c3c2)c1` was > 100 µM

----------
# method_notes: Clearance in rat at 2 mg/kg, iv
# Format: ADME, organism-based
# condition_description: in vivo
result_type: clearance
Number first, unit second.

Reported clearance for `N#Cc1cccc(CNc2ccc3ncnc(Nc4ccc(F)c(Cl)c4)c3c2)c1` was 28.8 mL/min/kg

----------
# method_notes: Half life in rat at 2 mg/kg, iv
# Type: ADME, organism-based
# condition_description: in vivo
result_type: half-life

Reported half-life for `N#Cc1cccc(CNc2ccc3ncnc(Nc4ccc(F)c(Cl)c4)c3c2)c1` was 5.9 h

----------
Reported CC50 values for a set of molecules
# Test system: Vero
# method_notes: Cytotoxicity against African green monkey Vero cells infected with Middle East respiratory syndrome coronavirus MERS-CoV/KOR/KNIH/002_05_2015 assessed as reduction in cell viability
# Assay type: cell-based
# condition_description: chlorocebus sabaeus

> print(dat)
                               given.smiles  result.type  reported.result
1  O=[N+]([O-])c1cccc(CNc2ccc3ncnc(Nc4ccc(F)c(Cl)c4)c3c2)c1         CC50          > 25 µM

// CC50 (Vero) for `COc1ccccc1CNc1ccc2ncnc(Nc3ccc(F)c(Cl)c3)c2c1` = > 25 µM

// CC50 (Vero) for `O=[N+]([O-])c1cccc(CNc2ccc3ncnc(Nc4ccc(C(F)(F)F)cc4)c3c2)c1` = > 25 µM

----------
# Tested on: Vero
# method_notes: Cytotoxicity against African green monkey Vero cells infected with Middle East respiratory syndrome coronavirus MERS-CoV/KOR/KNIH/002_05_2015 assessed as reduction in cell viability
# Format: cell-based
# condition_description: chlorocebus sabaeus
Reported CC50 values for a set of compounds

> print(dat)
                               given.smiles  result.type  reported.result
1  N#Cc1ccc(CNc2ccc3ncnc(Nc4ccc(F)c(Cl)c4)c3c2)cc1         CC50          > 25 µM
2  COc1cccc(CNc2ccc3ncnc(Nc4ccc(C#N)cc4)c3c2)c1         CC50          > 25 µM
3  COc1cc2ncnc(Nc3ccc(F)c(Cl)c3)c2cc1NCc1cccc(C#N)c1         CC50          13.2 µM
4  N#Cc1ccccc1CNc1ccc2ncnc(Nc3ccc(C(F)(F)F)cc3)c2c1         CC50          > 25 µM
5  N#Cc1ccccc1CNc1ccc2ncnc(Nc3ccc(F)c(Cl)c3)c2c1         CC50          > 25 µM
6  O=[N+]([O-])c1ccc(CNc2ccc3ncnc(Nc4ccc(C(F)(F)F)cc4)c3c2)cc1         CC50          > 25 µM

Reported CC50 for `COc1cccc(CNc2ccc3ncnc(Nc4ccc(F)cc4)c3c2)c1` was > 25 µM

Reported CC50 for `Fc1ccc(Nc2ncnc3ccc(NCc4cccc(C(F)(F)F)c4)cc23)cc1Cl` was 9.2 µM

Reported CC50 for `COc1cccc(CNc2ccc3ncnc(Nc4ccc(Br)cc4)c3c2)c1` was > 25 µM

Reported CC50 for `O=[N+]([O-])c1ccc(CNc2ccc3ncnc(Nc4ccc(F)c(Cl)c4)c3c2)cc1` was > 25 µM
